The measurements presented in this section are drawn from ChEMBL document CHEMBL5120916.

test_system: Alpha-ketoglutarate-dependent dioxygenase FTO (Homo sapiens)
Sequence (Q9C0B1 whole entry): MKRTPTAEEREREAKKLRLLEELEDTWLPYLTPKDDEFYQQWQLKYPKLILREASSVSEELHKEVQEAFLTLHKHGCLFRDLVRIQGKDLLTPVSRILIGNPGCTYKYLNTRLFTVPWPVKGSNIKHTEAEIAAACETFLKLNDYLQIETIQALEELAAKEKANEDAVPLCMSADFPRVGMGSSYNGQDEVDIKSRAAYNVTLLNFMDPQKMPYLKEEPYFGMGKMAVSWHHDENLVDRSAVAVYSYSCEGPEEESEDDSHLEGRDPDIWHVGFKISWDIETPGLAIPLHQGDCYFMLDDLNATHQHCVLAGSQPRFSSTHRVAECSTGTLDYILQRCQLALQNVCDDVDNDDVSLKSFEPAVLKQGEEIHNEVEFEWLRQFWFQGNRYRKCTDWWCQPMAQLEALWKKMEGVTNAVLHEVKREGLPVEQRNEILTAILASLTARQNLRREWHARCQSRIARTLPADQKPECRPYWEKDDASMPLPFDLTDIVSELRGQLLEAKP
pIC50: −log10 of the molar value.
outcome_measure: pIC50

Below, 3 compounds whose answers are already recorded.
smiles_repr | test_system | outcome_measure | number
Cc1cc(-c2c(C)noc2C)cc(C)c1Nc1ccccc1C(=O)O | Alpha-ketoglutarate-dependent dioxygenase FTO (Homo sapiens) | pIC50 | 5.72
Cc1noc(C)c1-c1cc(Cl)c(Nc2cccc(F)c2C(=O)O)c(Cl)c1 | Alpha-ketoglutarate-dependent dioxygenase FTO (Homo sapiens) | pIC50 | 5.80
O=C(O)c1ccccc1Nc1c(Cl)cc(-c2ccncc2)cc1Cl | Alpha-ketoglutarate-dependent dioxygenase FTO (Homo sapiens) | pIC50 | 5.82

P: O=C(O)c1ccccc1Nc1c(Cl)cc(-c2cnoc2)cc1Cl
Q: Cc1noc(C)c1-c1cc(Cl)c(Nc2cc(F)c(F)cc2C(=O)O)c(Cl)c1
// pick min by pIC50: P , Q Mark your selection by writing its label. Q
(Q: 5.47, P: 5.77)
